measured-on: δ-opiate receptor (Rattus norvegicus)
Construct: from tissue; host or cells: rat brain (male Wistar) without cerebellum and medulla oblongata, membrane homogenate
Sequence (P33533 whole entry): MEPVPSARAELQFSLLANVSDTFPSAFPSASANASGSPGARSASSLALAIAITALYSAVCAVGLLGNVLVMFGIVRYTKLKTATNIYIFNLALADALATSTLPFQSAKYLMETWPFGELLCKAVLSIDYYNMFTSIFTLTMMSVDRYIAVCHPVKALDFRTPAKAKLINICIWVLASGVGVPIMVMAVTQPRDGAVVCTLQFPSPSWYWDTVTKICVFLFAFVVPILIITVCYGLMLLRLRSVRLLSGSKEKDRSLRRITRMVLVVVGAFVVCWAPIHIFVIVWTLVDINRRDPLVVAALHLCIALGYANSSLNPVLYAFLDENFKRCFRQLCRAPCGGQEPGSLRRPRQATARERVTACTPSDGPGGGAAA
experimental-protocol: δ-Opiate receptor binding ([3H]-2-D-Ala-deltorphin II displacement, rat brain membrane homogenate)
Parameters: species or system rat (male Wistar)
stated-conditions: 1 nmole/l [3H]-2-D-Ala-deltorphin II, 90 minutes at 37° C., pH 7.4, mean ± standard deviation of three independent tests, Ki from IC50 by Cheng-Prussoff
Where a name gives a salt, the structure may show the parent alone.
recorded-metric: pKi
Value format note: pKi is -log10 of concentration (mol/L); just state the number.

Here is how some compounds turned out for pKi.
* CN(C)CC1=C(c2cccc(O)c2)c2cc3ccccc3nc2CC1(C)C [hydrochloride] | 7.54
* COc1cccc([C@@H]2c3cc4ccccc4nc3CC[C@H]2CN(C)C)c1 (racemic) [hydrochloride] | 6.90
* COc1cccc(C2=C(CN(C)C)CCc3nc4ccccc4cc32)c1 [hydrochloride] | 6.88
* CN(C)C[C@H]1CCc2nc3ccccc3cc2[C@@H]1c1cccc(O)c1 (relative stereo) [hydrochloride] | 8.38

Prompt: Tell me measured pKi for CN(C)CC1=C(c2cccc(O)c2)c2cc3ccccc3nc2CC1 [hydrochloride] please.
Completion: 8.42
